Origin of values: the supplement of paper PMC6555819

Test system: PPARg:RXRa 90nM:30nM, anti-RXR (NR concentration 90 nM, RXRa partner concentration 30 nM)
experiment-notes: PBM binding z-score (relative to random genomic background probes); higher = stronger binding; sequences stand for … in GC…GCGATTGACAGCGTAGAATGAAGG
Rule: PBM binding z-score under 2 gives Condition not met, otherwise Condition met.

Before answering, review these 5 worked examples.
# check: PBM binding z-score of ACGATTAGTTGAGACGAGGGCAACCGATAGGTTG is greater than or equal to 2
Condition not met

# check: PBM binding z-score of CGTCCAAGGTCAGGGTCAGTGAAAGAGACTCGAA is greater than or equal to 2
Condition met

# check: PBM binding z-score of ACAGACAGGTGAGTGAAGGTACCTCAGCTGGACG is greater than or equal to 2
Condition not met

# check: PBM binding z-score of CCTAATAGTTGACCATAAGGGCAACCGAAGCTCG is greater than or equal to 2
Condition not met

# check: PBM binding z-score of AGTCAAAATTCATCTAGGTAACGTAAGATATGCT is greater than or equal to 2
Condition not met

---
# check: PBM binding z-score of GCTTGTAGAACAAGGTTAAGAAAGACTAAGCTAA is greater than or equal to 2
Condition not met

# check: PBM binding z-score of CGAACTAGGTCAGAACAGGACGGTGAAGGATGAT is greater than or equal to 2
Condition met

# check: PBM binding z-score of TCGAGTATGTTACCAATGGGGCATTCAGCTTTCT is greater than or equal to 2
Condition not met

# check: PBM binding z-score of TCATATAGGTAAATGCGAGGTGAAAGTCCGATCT is greater than or equal to 2
Condition met
